- PROTOCOL SUMMARY: Pharmacokinetics in ICR mice
- Type: in vivo
- ASSAY SETUP: mouse, plasma, IV, 5 mg/kg
QUANTITY KIND: AUC(0-inf) (ng·h/mL)
Give bare numbers, in ng·h/mL.

Query (compound): `COc1cc(OC)cc(N2CCN(C(=O)Nc3nc4sccc4nc3OC)CC2)c1` ; field requested: AUC(0-inf) 16600

Values compiled from paper PMC9143821.
